test_system: T1, soluble human FcRn (human, UniProt P55899 24-297; P61769 21-119, biotinylated (Sulfo-NHS-LC-Biotin) in the ELISA; amine-coupled to CM5 chip in SPR)
T1 construct: also called shFcRn; biotinylated shFcRn
protocol: ELISA, competitor human IgG
experimental_readout: IC50 (µM)

(a) QRFXTGHFGGLYPENGP (Orn at 4; side-chain lactam bridge Orn 4-Glu 14; C-terminal amide) [Peptide No. 131]
(b) QRFXTGHFGGLYPENGP (Dab at 4; side-chain lactam bridge Dab 4-Glu 14; C-terminal amide) [Peptide No. 72]
Q: // which entry has the larger IC50 value, a or b ? Selection: enter the item's label.
A: b
(b: 81 µM, a: 30 µM)
